experimental-system: Nuclear receptor coactivator 1 (Homo sapiens) (UniProt Q15788)
Sequence (Q15788 whole entry, looked up): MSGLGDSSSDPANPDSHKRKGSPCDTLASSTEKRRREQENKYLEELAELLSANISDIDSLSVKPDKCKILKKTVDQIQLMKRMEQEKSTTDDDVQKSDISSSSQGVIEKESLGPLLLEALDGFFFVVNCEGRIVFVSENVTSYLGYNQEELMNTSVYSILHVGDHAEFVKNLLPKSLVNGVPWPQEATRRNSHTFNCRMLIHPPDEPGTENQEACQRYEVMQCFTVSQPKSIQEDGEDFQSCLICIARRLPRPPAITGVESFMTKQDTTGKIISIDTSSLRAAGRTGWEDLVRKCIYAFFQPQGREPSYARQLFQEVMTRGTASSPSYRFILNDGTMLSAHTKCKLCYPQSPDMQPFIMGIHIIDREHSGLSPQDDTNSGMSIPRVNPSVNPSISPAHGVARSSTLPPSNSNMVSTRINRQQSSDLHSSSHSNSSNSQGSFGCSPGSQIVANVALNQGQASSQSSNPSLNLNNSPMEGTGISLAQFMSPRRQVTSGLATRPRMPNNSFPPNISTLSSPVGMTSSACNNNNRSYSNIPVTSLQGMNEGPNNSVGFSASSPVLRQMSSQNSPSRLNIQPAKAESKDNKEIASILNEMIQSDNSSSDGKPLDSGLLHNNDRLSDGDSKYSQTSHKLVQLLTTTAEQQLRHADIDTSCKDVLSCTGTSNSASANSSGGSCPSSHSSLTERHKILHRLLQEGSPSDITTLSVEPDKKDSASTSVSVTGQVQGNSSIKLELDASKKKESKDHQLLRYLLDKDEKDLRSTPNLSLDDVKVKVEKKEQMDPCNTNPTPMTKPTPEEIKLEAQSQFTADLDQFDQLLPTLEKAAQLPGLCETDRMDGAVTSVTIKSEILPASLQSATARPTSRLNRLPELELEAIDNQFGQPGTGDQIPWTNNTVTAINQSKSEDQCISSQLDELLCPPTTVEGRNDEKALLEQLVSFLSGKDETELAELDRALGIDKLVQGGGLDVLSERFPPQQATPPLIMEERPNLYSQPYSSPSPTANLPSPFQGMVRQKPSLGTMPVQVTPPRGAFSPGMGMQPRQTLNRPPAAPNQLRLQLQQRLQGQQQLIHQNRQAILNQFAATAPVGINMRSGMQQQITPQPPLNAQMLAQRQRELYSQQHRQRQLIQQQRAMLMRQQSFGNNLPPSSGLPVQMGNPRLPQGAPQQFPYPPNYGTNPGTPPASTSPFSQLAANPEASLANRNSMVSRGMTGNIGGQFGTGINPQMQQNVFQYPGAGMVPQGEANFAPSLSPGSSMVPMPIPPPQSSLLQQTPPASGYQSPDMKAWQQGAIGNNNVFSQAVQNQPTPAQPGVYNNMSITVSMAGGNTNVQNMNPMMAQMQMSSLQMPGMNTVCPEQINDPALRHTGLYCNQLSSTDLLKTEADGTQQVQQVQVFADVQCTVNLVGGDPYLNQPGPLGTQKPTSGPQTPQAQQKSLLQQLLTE
assay-method-text: SRC1 coactivator transcriptional activity inhibitors, confirmation, cell-based, luminescence, quadruplicate (AID 588820);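 also: 0% = DMSO wells and 100% = gossypol 36 µM treated wells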
condition-info: HEK293 GAL4-SRC1 luciferase reporter, at 3.6 µM, active compounds read high
Give inhibition for every item shown.
Answers are plain numbers, in %.

{"compound": "CC(C)C[C@H]1CNC(=S)N1C[C@H]1CCCN1C[C@H](CC(C)C)N1C[C@H](CC(C)C)N(CCc2ccccc2)C1=S", "inhibition / %": -1.01}
{"compound": "COc1ccc(-n2cc(-c3ccccc3)c3c(N4CCOCC4)ncnc32)cc1", "inhibition / %": -50.7}
{"compound": "Nc1ncccc1C(=O)OCC(=O)N1CCN(S(=O)(=O)c2ccc(Cl)cc2)CC1", "inhibition / %": 23.2}
{"compound": "c1cc2[nH]snc2c2nc(C3CC3)nc12", "inhibition / %": 53.3}

Enquiry: Any idea what inhibition was measured for Cc1ccc(C2NC(=O)CCC2[N+](=O)[O-])cc1 (stereo not given) ?
Return: -9.25
